// reported GI50 per item
System: SK-OV-3
Test: NCI tumour cell line growth inhibition, 48 h
Calls of active or inactive are those of the source. Cut-off read from the data, not from the text of the source: active = GI50 up to about 1.1 µM and inactive = higher.

Study these solved cases before continuing.
> print(dat)
                                   compound  measured.on        readout.value
1    Cc1nc(Nc2ccccc2Cl)sc1C(=O)CC(=O)C(N)=O      SK-OV-3   44.9 µM (inactive)
2  CCCNC1=C2C[C@@H](C)C[C@@H](OC)[C@@H](OC(=O)CCCN)[C@H](C)/C=C(\C)[C@@H](OC(N)=O)[C@H](OC)/C=C\C=C(/C)C(=O)NC(=CC1=O)C2=O      SK-OV-3   16.4 µM (inactive)
3             Cc1cc(-c2nc3cc(F)ccc3s2)ccc1N      SK-OV-3   88.5 µM (inactive)
4  COC(=O)c1ccc2[nH]c3c(c2c1)CC(=O)Nc1ccccc1-3      SK-OV-3   41.7 µM (inactive)
5         Oc1[nH]c(Nc2ccc(Cl)cc2)nc2ncnc1-2      SK-OV-3  > 100 µM (inactive)
6  CC(O)C1CC1(CO)CNc1cc(Cl)nc(N)n1 (stereo not drawn)      SK-OV-3  > 100 µM (inactive)
7  COc1cc(/C=C/C(=O)OC[C@H](Br)[C@H](OC(C)=O)c2ccc3c(c2)OCO3)cc(OC)c1OC      SK-OV-3  > 100 µM (inactive)

Now, please, on to the next compound.
Asked: // returns reported GI50 for input "CC(C)NC(NC(C)C)=C(S(=O)(=O)C(F)(F)C(F)(F)C(F)(F)C(F)(F)F)S(=O)(=O)C(F)(F)C(F)(F)C(F)(F)C(F)(F)F"
Given back: > 100 µM (inactive)

* * *

Test system: A549
Assay: NCI tumour cell line growth inhibition, 48 h
Activity calls are given as the source filed them. Rule as the data show it: active = GI50 up to about 1.1 µM and inactive = higher.
Answer with one of the outcomes t (active), f (inactive)

Example results:
compound	cat
O=C(Cc1nc2ncccc2[nH]c1=O)c1c[nH]c2ccccc12	f
CC(C)(C)NNC(=O)CCn1[nH]c(=O)c(Cl)c(Cl)c1=O	f
NC(=O)CNC(=O)[C@@H]1CC(OCCC(=O)O)CN1C(=O)C1CCCN1C(=O)OCc1ccccc1 (stereo not given in full)	f

Asked: Each compound tested received a call. Report the one for "COc1ccc(C(=O)O[C@H]2CC[C@@]3(C)[C@@H]4CC[C@H]5[C@]6(O)C[C@H](O)[C@@]7(O)[C@@H](CN8C[C@@H](C)CC[C@H]8[C@@]7(C)O)[C@]6(O)C[C@@]53OC24O)cc1OC" .
Given back: f

* * *

Tested on: KM12
Test: NCI tumour cell line growth inhibition, 48 h
Calls of active or inactive are those of the source. Cut-off read from the data, not from the text of the source: active = GI50 up to about 1.1 µM and inactive = higher.
Field 'call' accepts active, inactive

Record excerpt, results attached:
> print(dat)
                                   molecule  measured.on       cat
1  O=c1c(Br)c(-c2ccccc2)[s+]([O-])c2ccccc12 (centres undefined)         KM12  inactive
2      O=C(CCc1n[nH]c(=S)o1)Nc1ccc(Cl)cc1Cl         KM12  inactive
3  COC(=O)c1ccc2[nH]c3c(c2c1)CC(=O)Nc1ccccc1-3         KM12  inactive
4  COc1cc(/C=C/C(=O)OC[C@H](Br)[C@H](OC(C)=O)c2ccc3c(c2)OCO3)cc(OC)c1OC         KM12  inactive
5  CC(=O)Nc1ccccc1[S+]([O-])c1ccccc1 (centres undefined)         KM12  inactive
6  c1ccc(C2=Nc3nc4ccccc4n3C(c3ccccc3)C2)cc1 (centres undefined)         KM12  inactive
7                     O=C1C=Cc2c(I)sc(I)c21         KM12  inactive
8  COc1cccc(NC(=O)C(=O)C(C(=O)c2ccccc2F)C2OC(=O)c3ccccc32)c1 (centres undefined)         KM12  inactive

Asked: I would be grateful if you could indicate the recorded call for "COC(=O)[C@@H]1CO[C@H](C(C)(C)C)N1C(=O)N1C=CC(=O)C[C@H]1C" .
Given back: inactive

Asked: What was the test verdict on "O=C1NC2(CCCC2)C(=O)C12CCCC2" ?
Given back: inactive

Asked: Would you mind telling me which call this test gave "Oc1ccc(Cc2cc(Cl)cc(Cl)c2O)cc1Cl" ?
Given back: inactive

Asked: Hello, I am checking results. What call was entered for NC(=O)c1cccc(C2OC(COP(=O)(O)O)C(O)C2O)c1 (centres undefined) ?
Given back: inactive

* * *

Test system: SK-MEL-28
Experiment: NCI tumour cell line growth inhibition, 48 h
The source made the active and inactive calls. Cut-off read from the data, not from the text of the source: active = GI50 up to about 1.1 µM and inactive = higher.
Outcome field: choose from yes for active, no for inactive

Worked examples, 2 compounds total:
compound	measured-on	cat
C=Cc1nc2nnc(CCCCCCCCc3nnc4nc(C=C)[nH]n34)n2[nH]1	SK-MEL-28	no
CCC1=C(CC2NCCc3ccccc32)CC2c3cc(OC)c(OC)cc3CCN2C1 (stereo not drawn)	SK-MEL-28	no

Asked: Recorded test call requested for "O=c1sc2c(s1)SSSSS2"
Given back: no

Asked: Could you kindly confirm the outcome this assay logged for "Cc1nc2ccc(Cl)cc2c2c1CCN2c1ccc(F)cc1" ?
Given back: no

Asked: What did this assay record as the result for "O=Cc1c(-c2ccccc2)nc2ccccc2c1O" ?
Given back: no

Asked: Tell me the assay call for "CCCc1cc(=O)oc2c(C=O)c(O)cc(O)c12" please.
Given back: no

Asked: Please indicate how the test categorized CCC1=C(CC2NCCc3cc(OC)c(OC)cc32)CC2c3ccccc3CCN2C1 (stereo not drawn) .
Given back: no

Asked: Hi team, can someone confirm the assay call for "COC1=CC(=O)c2c(c(COC(C)=O)cn2C)C1=O" ?
Given back: yes

* * *

System: MDA-MB-231
Assay: NCI tumour cell line growth inhibition, 48 h
Active and inactive are the calls of the source. Rule as the data show it: active = GI50 up to about 1.1 µM and inactive = higher.
Respond with a class label; see YES = active, NO = inactive

Previously resolved entries follow.
> print(dat)
                                   compound  cat
1  COc1cc2c(c(OC)c1O)-c1ccc(OC)c(=O)cc1[C@@H](NC(=O)C(F)(F)F)CC2  YES
2  COc1ccc(CC(CO)NC(=O)OCc2ccccc2)cc1Oc1ccc(CC(CO)NC(=O)OCc2ccccc2)cc1 (stereo not given)   NO
3          COc1ccc2oc3c(ccc[n+]3C)c(=O)c2c1   NO
4  CN(C(=O)C1=CCC2(CC1)OCCO2)c1ccccc1OS(=O)(=O)C(F)(F)F   NO
5  COC(=O)[C@@H]1CO[C@H](C(C)(C)C)N1C(=O)N1C=CC(=O)C[C@H]1C   NO
6  O=S(=O)(c1ccc2ccccc2c1)N1CCN(S(=O)(=O)c2ccc3ccccc3c2)CC1   NO
7  C=Cc1nc2nnc(CCCCCCCCc3nnc4nc(C=C)[nH]n34)n2[nH]1   NO
8  COc1cc(/C=C/C(=O)OC[C@H](Br)[C@H](OC(C)=O)c2ccc3c(c2)OCO3)cc(OC)c1OC   NO

Asked: Hi team, can someone confirm the assay call for "NC1(CCNC(=O)c2ccccc2)CCN(C(=O)c2ccccc2)CC1" ?
Given back: NO

Asked: Each compound tested received a call. Report the one for "COc1c(-c2ccc(F)cc2)oc2c(CC(=O)O)cccc2c1=O" .
Given back: NO

* * *

Listing of recorded GI50 by entry.
System: IGROV-1
Test: NCI tumour cell line growth inhibition, 48 h
Activity calls are given as the source filed them. Cut-off read from the data, not from the text of the source: active = GI50 up to about 1.1 µM and inactive = higher.

Example entries begin here.
> print(dat)
                                   compound  readout.label        readout.value
1         COC(=O)CSSCc1ccc([N+](=O)[O-])cc1           GI50   3.08 µM (inactive)
2            CCOC(=O)c1c(N2CCCC2)ncn(C)c1=S           GI50  > 100 µM (inactive)
3  CC(=O)Oc1c(OC(C)C)c(C)c(O[Si](C(C)C)(C(C)C)C(C)C)c2[nH]c3ccccc3c12           GI50  > 100 µM (inactive)
4                   C#CCN(C)C(=O)N(CC#C)N=O           GI50  > 100 µM (inactive)
5  OCC1=CC(NC2CC(CO)C(O)C(O)C2O)C(O)C(O)C1O (stereo unspecified)           GI50  > 100 µM (inactive)

Asked: Quick check: GI50 of "CCOC(=O)C(=O)Nc1nc2c(OCC)cccc2s1" ?
Given back: > 100 µM (inactive)

Asked: # input compound: "C(#CC1(Nc2ccccc2)CCN(Cc2ccccc2)CC1)C1(Nc2ccccc2)CCN(Cc2ccccc2)CC1" ; wanted: its GI50
Given back: 22.9 µM (inactive)

Asked: Please look up its GI50: "Oc1[nH]c(Nc2ccc(Cl)cc2)nc2ncnc1-2"
Given back: > 100 µM (inactive)

Asked: Returns the measured GI50 for the input compound. Input: "COC(=O)c1ccc2cc(O)ccc2c1"
Given back: 75.7 µM (inactive)

Asked: Entry "CSc1ccc(/C=C2\CNC/C(=C\c3ccc(SC)cc3)C2=O)cc1" has what GI50?
Given back: > 81.7 µM (inactive)

Asked: Return reported GI50; argument: "Cc1nn2c(N)cc(=O)nc2nc1/C=C/c1ccc(N(C)C)cc1"
Given back: 16.6 µM (inactive)
